All values here come from ChEMBL document CHEMBL1124794.

TEST_DESCRIPTION: Half life at the pH 4.0
Format: ADME
RUN_CONDITIONS: buffer
PROPERTY_MEASURED: half-life (min)
Please reply with the bare figure in min and do not write the unit itself.

Looking up `CC(C)NC(=O)OCc1c(COC(=O)NC(C)C)c(-c2ccn(C)c(=O)c2)n2c1CCC2` , I found its half-life recorded as 46.7

###

TEST_DESCRIPTION: Half life at the pH 8.0
Assay type: ADME
RUN_CONDITIONS: buffer
Recorded half-life, one value per entry.
Please reply with the bare figure in min and do not write the unit itself.

CC(C)NC(=O)OCc1c(COC(=O)NC(C)C)c(-c2cc[n+](C)c(F)c2)n2c1CCC2.[I-] | 13.3

Looking up `CC(C)NC(=O)OCc1c(COC(=O)NC(C)C)c(-c2ccn(C)c(=O)c2)n2c1CCC2` , I found its half-life recorded as 54.1
